Would you mind telling me the reported Percent Effect of each entry?
- Tested on: Wolbachia pipientis
- experimentSummary: Anti-Wolbachia Cell-Based Screen
- Assay type: functional
- Design: scale not given: in the data most compounds retested in dose-response had high values
- conditions: 5 µM
Hit rate of the full screen: of about 48,000 compounds, about 13,000 (27%) showed an effect of 50% or more. This is one part of the list.
Quick reminder: number only, in %, skip the unit.

In: Data request, read-out Percent Effect, for O=C1N(CCc2ccccc2)CCCC12CCN(C(CO)CO)C2 (stereo unspecified)
Out: -2.358

In: Data request, read-out Percent Effect, for CCN1Cc2ccccc2CC2(CCN(CC(=O)O)CC2)C1=O.O=C(O)C(F)(F)F
Out: 108.1

In: Data request, read-out Percent Effect, for COc1cc2c(cc1-c1nc3c(cnn3C(C)C)[nH]1)OCO2
Out: 0.2831

In: Data request, read-out Percent Effect, for Cc1ccc2c(c1)C1(CC2)CCN(CC(=O)O)CC1.O=C(O)C(F)(F)F
Out: -2.152

In: Data request, read-out Percent Effect, for CO[C@@H]1CN(c2ccccc2)S(=O)(=O)[C@@]12CCN(CC1CC1)C2
Out: 88.1

In: Data request, read-out Percent Effect, for O=C(O)CN1CCC2(CCc3ccccc32)CC1
Out: -5.092

In: Data request, read-out Percent Effect, for CC(C)CN1CCC2(CCN(CC3CC3)CC2)C1=O.O=C(O)C(F)(F)F
Out: 3.548

In: Data request, read-out Percent Effect, for Cn1cccc1C(=O)N1CCC2(CCCN(CC3CCC3)C2=O)C1 (stereo unspecified)
Out: 0

In: Data request, read-out Percent Effect, for CCN1CCC2(CN(C(C)=O)CC23CCN(C(=O)N(C)C)CC3)C1=O (stereo unspecified)
Out: -7.709

In: Data request, read-out Percent Effect, for CCN1Cc2ccccc2CC2(CCN(CC3CCC3)CC2)C1=O
Out: 112.5

In: Data request, read-out Percent Effect, for Cc1cnc(CNC(=O)[C@@]23CCO[C@@H]2CCNC3)cn1.O=C(O)C(F)(F)F
Out: 84.34

----------
- Test system: Wolbachia pipientis
- experimentSummary: Anti-Wolbachia Cell-Based Screen
- Format: functional
- Set-up: scale not given: in the data most compounds retested in dose-response had high values
- conditions: 5 µM
The whole screen tested about 48,000 compounds, of which about 13,000 (27%) showed an effect of 50% or more. Some of the results follow.
Would you mind telling me the reported Percent Effect of each entry?
Quick reminder: number only, in %, skip the unit.

In: Data request, read-out Percent Effect, for CCS(=O)(=O)NC1CCc2c(ccc(=O)n2CC2CC2)C1 (stereo unspecified)
Out: 2.839

In: Data request, read-out Percent Effect, for CC(=O)c1cc(CC(=O)NCc2cccc(F)c2F)cs1
Out: -6.344

In: Data request, read-out Percent Effect, for O=C(NC1CCN(C2CC2)CC1)NC1CCOc2ccc(Br)cc21 (stereo unspecified)
Out: 24.64

In: Data request, read-out Percent Effect, for CCCS(=O)(=O)NC1CCc2c(ccc(=O)n2CC2CC2)C1 (stereo unspecified)
Out: -27.38

In: Data request, read-out Percent Effect, for CSCCC(C)NC(=O)CCN1C(=O)CCc2cc(F)ccc21 (stereo unspecified)
Out: 2.729

In: Data request, read-out Percent Effect, for Cc1nc(CN2CCCC2C(=O)OCc2ccccc2)oc1C (stereo unspecified)
Out: 2.818

Value source: ChEMBL document CHEMBL3988442
